target: Neprilysin (Canis familiaris); assay: Inhibition of dog NEP
Readout name: log10(IC50) (log10 of the value in nM)
Could you please treat all values as log10 of IC50 in nM?

Some entries whose results are on file:
{"Compound": "CCCC(CC1(C(=O)Nc2ncccc2CC)CCCC1)C(=O)O (stereo not given)", "log10(IC50)": 3.23}
{"Compound": "CCCC(CC1(C(=O)NC2(CO)CCCC2)CCCC1)C(=O)O (stereo not given)", "log10(IC50)": 3.23}
{"Compound": "CCCC(CC1(C(=O)N[C@H](CO)Cc2ccccc2)CCCC1)C(=O)O (stereo not given in full)", "log10(IC50)": 2.58}

Q. What log10(IC50) value was documented for this compound, CCCC(CC1(C(=O)Nc2cc(C)ccn2)CCCC1)C(=O)O (stereo not given) ?
A. 2.80

Q. Query (compound): CCCC(CC1(C(=O)Nc2cc(Cc3ccccc3)ccn2)CCCC1)C(=O)O (stereo not given) ; field requested: log10(IC50)
A. 1.98

Q. Need log10(IC50), item CCCC(CC1(C(=O)Nc2nnc(CC(C)C)s2)CCCC1)C(=O)O (stereo not given)
A. 2.09
